Assay: protease stability score; higher = more stable; yeast display proteolysis, trypsin and chymotrypsin;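 further: relative to predicted unfolded state with 0 unfolded-like and 1 meaning tenfold more protease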
Lab note: anything with protease stability score at or over 1 counts as t; the rest go in f.

For orientation, consider the following solved cases.
[[record]]
sequence_input = "SEEEHVAEELIKQFLRKFSTGDEDSMRNLFDPNVKIEQGEFDIHGREEETRYFRELRVHIEDSTAREIRVQGDKVDIDLEVVGIVHFNGKTVRRIIRTRVHLLKVDGQWHIKSIQIL"
classification = "t"

[[record]]
sequence_input = "DDLEREAEEFHRLMHKSVRTGDEKLIEEMFDPNVRLDINGREMHGRHDVVELERRVDHSEWHIEDIRVVGEWADIRGELVIQVGDKEHIYKTRLIVLKIDGKWRTTEMHVR"
classification = "f"

[[record]]
sequence_input = "DEDKEEIMEAIKEFLTNLQTGDEERLFELFDPHVRLKVNGQLYHGREDLVRHLSELGVKHWRLRSVEIQGEKAIMHGLVNVDGRSVRMIIEAEKVNGRWRMRHFESH"
classification = "t"

[[record]]
sequence_input = "DEDERHARKVLELWLQSLLTGDEELTDHLLDPRVKILVDGVELHGREHARMFHRHIHMRIDHMKDFHIHSFTSVGDKVHVDIRIHFRQGDKEYRLNQRTLILKVNGRWVIEKIEVD"
classification = "t"

[[record]]
sequence_input = "SEEDRLHEEWIEESFKIWETGDEERFWKMVDPEYLFRLDIDGVHLESHGRENAREHFREQLSRLGIKYLDLHEIHLQGNKAILDVRVNFNGQERHVIIRLLIIDGRIKKREIEIR"
classification = "t"


Item DHQEESRSKFLNDILRIQRTGDFEKIYENVDPDVRIHIGDKEWHGREQATKVLTEWRVEHFDLKSMHIQGDKVHIHGHMIYNINGQERRSDIEIVLLKFNGRWFIHSMRID with protease stability score of 1 or above?
t

Item DEDRIISEEAAKLFLHLLLTGDEKVFDEYLDPRTRLIIGDKEFIGRETLRKTMQEFRHKAGIDHMHIRDSRIELIDGRVVQHLEIHVRFNGKSEDRVIHVFIEKINGRWHIHFVEVKID with protease stability score of 1 or above?
t

Item HEDEEWAEKMVREFLEATRTGDFESTLQLADPHVRFIINGKDIHGMEDWQEHLEHIRIQYHDIRIEHREVIGDKIYVKTRIDVTIHINGRKHRTVLDVEFIIHKVNGRWIIRELEIR with protease stability score of 1 or above?
t

Item DEEKHEFELLLRLWLRTMETGDEQMSRRLVDPNVRIEIGDKDIHGREEMSRIVRHWRVHDYDIKDSTVQGDKAHLDGHIEGTIDGKTTRFHIHLNLEKINGRWLIKEVVVE with protease stability score of 1 or above?
t

Item TEEDRFAHEFVRKWIENFLTGNEEKLHELADPNMKIDVGDKHLHGMEEWTRFLRDLGWRTEIRLRDIEVQGNKAFIRGEVHISINGRTDKTETRIILHVVNGRLKEVYVHHQ with protease stability score of 1 or above?
t

Item SEIERESKIFSKIEKHVWETGDEKILSEMADPHARIEIGDKEHHGREEFEKVAHEIVEFFPNMRFRVEHMDVQGNKVDLDTRLHFENHSHRYQVISLKFNGRWLIKSVKIE with protease stability score of 1 or above?
t

Item DEEEKEVHKFMDLLVRALETGDEDEFLSLVDPNARVEIGDKLLHGRESEHWLTEHIKKVAGVERFTHHIHLKDWTIFNGRVRVDGILHLDYGNFHVERRSDFIIYKVDGRWIMRSERVH with protease stability score of 1 or above?
f

Item DDKDEKSKKWAEMFIHLIETGDEERIRELLDPDVRVEIGDKEIHGRERWLEWERRMRDKYKNLRFRIEHHHIQGDKVHIRTEREIGDKSLDIRIEIIIYNGRAKEFHIDIR with protease stability score of 1 or above?
t

Item SSEEEDIEWATEVLVMSFITGDWKLSHKLMDPNVLSIVNGREFHGRELAVKHLHEMTEKIKGLRIETHDLKHINIFNGRARVHSIVRGDINGRKVDSMIDVITNKFDGRWVIESVQFI with protease stability score of 1 or above?
t

Item SETDELLRQLAEFHRETLETGDFHTLWHLLDPHVRLDYNGQKMHGREHFARFWLELLTELRIHFRVRDIRTQGNKAHNRGEIIIHYDGRLRIIDSEIEIIVVNGKVTEVRHTIN with protease stability score of 1 or above?
f

Ref: the NTF2 design screens of Basanta et al. (2020)
